molecular target: Metabotropic glutamate receptor 1 (Homo sapiens, UniProt Q13255); experiment: Negative allosteric modulation of mGlu1 receptor (unknown origin)
Sequence (Q13255 whole entry): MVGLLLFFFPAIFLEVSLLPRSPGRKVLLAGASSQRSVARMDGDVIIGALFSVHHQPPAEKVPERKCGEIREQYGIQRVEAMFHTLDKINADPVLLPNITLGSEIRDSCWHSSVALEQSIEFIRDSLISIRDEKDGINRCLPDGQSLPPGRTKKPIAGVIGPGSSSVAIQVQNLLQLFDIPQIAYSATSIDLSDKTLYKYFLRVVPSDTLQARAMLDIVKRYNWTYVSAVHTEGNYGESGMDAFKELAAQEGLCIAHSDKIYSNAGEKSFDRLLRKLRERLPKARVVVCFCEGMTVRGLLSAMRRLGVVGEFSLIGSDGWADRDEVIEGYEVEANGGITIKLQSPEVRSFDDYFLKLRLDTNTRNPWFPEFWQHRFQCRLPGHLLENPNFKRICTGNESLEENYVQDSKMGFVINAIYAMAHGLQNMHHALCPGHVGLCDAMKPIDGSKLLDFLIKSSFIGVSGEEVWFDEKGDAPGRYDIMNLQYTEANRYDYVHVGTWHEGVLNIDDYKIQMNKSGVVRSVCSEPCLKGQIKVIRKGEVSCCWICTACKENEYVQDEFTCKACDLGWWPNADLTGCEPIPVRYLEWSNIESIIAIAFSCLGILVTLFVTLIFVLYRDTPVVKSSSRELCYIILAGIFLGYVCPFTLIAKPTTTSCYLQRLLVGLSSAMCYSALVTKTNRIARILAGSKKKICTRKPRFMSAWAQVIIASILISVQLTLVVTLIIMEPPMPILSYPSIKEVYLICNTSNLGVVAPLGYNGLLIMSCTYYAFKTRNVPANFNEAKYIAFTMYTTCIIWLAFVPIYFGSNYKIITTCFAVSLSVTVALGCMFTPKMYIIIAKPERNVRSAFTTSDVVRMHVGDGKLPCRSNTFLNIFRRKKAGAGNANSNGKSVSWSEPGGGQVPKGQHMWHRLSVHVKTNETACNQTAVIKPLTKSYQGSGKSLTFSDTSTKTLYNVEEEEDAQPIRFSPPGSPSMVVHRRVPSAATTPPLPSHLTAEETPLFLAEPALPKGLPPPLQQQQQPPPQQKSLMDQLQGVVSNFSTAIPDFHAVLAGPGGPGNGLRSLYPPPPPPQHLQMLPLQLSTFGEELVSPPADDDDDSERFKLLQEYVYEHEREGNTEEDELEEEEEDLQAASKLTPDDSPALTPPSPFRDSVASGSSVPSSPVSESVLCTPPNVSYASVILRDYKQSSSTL
pIC50: −log10 of the molar value.
Recorded Endpoint: pIC50

response.value for `COc1ccc(-c2nnc(-c3cc(OC(F)(F)F)ccc3-n3ccnc3)o2)cc1OC` (field: pIC50) = < 5.00

###

molecular target: UniProt P35400; test: Negative allosteric modulation of rat mGlu7 receptor expressed in HEK cells co-expressing Galpha15 assessed as minimum L-AP4 response by measuring reduction in calcium mobilization incubated for 142 secs prior to glutamate addition for 120 secs followed by L-AP4 addition and measured after 40 secs by Fluo-4 AM dye based fluorescence assay relative to L-AP4 alone; type: functional, cell-based; design: scale not given: the % may be the effect or the level left
Recorded Endpoint: Activity (%)
Reply with just the number (in %).

compound=COc1cc(-c2nnc(-c3cc(OC(F)(F)F)ccc3-n3cncn3)o2)ccc1OCC1CC1 assay_system="UniProt P35400" units_text=% measured_number=13.2
compound=COc1ccc(-c2cnc(-c3cc(OC(F)(F)F)ccc3-n3cncn3)o2)cc1OC assay_system="UniProt P35400" units_text=% measured_number=36.5
compound=COc1ccc(-c2nnc(-c3cc(OC(F)(F)F)ccc3N3CCOCC3)o2)cc1OC assay_system="UniProt P35400" units_text=% measured_number=23.1

Log: UniProt P35400, compound `COc1cc(F)c(-c2nnc(-c3cc(OC(F)(F)F)ccc3-n3cncn3)o2)cc1OC` , Activity = 72.8

###

assay: Brain to plasma permeability coefficient, Kp of compound in rat; format: ADME, cell-free
Collected Kp values appear next to each entry.
Number only, please.

compound=COc1cc(-c2nnc(-c3cc(OC(F)(F)F)ccc3-n3cncn3)o2)ccc1OCC1CC1 measured_number=2

// below: Kp requested for another molecule
molecule `COc1ccc(-c2nnc(-c3cc(OC(F)(F)F)ccc3-n3ccnc3)o2)cc1OC` , Kp observed: 4.9

###

test: Protein binding in rat brain assessed as unbound fraction at 5 uM measured after 6 hrs by LC-MS/MS analysis; type: ADME, tissue-based
Recorded Endpoint: fraction unbound at 6 h, 5 µM
Reply briefly: the number, and no unit.

Documented fraction unbound at 6 h, 5 µM of `COc1ccc(-c2nnc(-c3cc(OC(F)(F)F)ccc3-n3ccnc3)o2)cc1OC` : 0.013

###

target: Metabotropic glutamate receptor 8 (Homo sapiens); assay: Negative allosteric modulation of mGlu8 receptor (unknown origin)
Sequence (O00222 whole entry): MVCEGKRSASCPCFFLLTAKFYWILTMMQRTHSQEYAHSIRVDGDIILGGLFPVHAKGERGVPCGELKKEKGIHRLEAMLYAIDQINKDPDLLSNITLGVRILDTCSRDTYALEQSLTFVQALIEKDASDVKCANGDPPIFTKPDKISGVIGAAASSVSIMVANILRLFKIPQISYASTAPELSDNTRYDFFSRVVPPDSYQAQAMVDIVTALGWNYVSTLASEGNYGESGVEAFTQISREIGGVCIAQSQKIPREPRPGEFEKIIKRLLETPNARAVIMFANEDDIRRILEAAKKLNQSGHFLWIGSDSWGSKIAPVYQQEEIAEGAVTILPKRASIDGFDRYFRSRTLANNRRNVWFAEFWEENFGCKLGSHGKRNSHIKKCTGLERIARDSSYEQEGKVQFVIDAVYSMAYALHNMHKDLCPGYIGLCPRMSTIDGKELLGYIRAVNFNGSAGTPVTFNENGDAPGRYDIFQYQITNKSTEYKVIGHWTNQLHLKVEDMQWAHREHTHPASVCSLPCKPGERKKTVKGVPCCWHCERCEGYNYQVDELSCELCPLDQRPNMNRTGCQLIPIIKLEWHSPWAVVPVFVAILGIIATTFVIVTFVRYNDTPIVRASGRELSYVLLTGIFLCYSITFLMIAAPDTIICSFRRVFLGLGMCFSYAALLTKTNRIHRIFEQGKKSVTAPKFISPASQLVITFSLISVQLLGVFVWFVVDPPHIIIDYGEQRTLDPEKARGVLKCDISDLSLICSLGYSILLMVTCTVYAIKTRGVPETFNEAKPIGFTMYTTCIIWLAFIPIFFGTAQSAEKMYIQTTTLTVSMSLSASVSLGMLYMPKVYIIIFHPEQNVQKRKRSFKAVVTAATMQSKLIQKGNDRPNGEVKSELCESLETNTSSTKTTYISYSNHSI
pIC50: −log10 of the molar value.
Recorded Endpoint: pIC50

Reported pIC50 of `COc1ccc(-c2nnc(-c3cc(OC(F)(F)F)ccc3-n3ccnc3)o2)cc1OC` : < 5.00

###

target: Metabotropic glutamate receptor 7 (Rattus norvegicus); test: Negative allosteric modulation of rat mGlu7 receptor expressed in HEK cells co-expressing Galpha15 assessed as reduction in calcium mobilization incubated for 142 secs prior to glutamate addition for 120 secs followed by L-AP4 addition and measured after 40 secs by Fluo-4 AM dye based fluorescence assay; type: functional, cell-based; details: read-out: IC50
Sequence (P35400 whole entry): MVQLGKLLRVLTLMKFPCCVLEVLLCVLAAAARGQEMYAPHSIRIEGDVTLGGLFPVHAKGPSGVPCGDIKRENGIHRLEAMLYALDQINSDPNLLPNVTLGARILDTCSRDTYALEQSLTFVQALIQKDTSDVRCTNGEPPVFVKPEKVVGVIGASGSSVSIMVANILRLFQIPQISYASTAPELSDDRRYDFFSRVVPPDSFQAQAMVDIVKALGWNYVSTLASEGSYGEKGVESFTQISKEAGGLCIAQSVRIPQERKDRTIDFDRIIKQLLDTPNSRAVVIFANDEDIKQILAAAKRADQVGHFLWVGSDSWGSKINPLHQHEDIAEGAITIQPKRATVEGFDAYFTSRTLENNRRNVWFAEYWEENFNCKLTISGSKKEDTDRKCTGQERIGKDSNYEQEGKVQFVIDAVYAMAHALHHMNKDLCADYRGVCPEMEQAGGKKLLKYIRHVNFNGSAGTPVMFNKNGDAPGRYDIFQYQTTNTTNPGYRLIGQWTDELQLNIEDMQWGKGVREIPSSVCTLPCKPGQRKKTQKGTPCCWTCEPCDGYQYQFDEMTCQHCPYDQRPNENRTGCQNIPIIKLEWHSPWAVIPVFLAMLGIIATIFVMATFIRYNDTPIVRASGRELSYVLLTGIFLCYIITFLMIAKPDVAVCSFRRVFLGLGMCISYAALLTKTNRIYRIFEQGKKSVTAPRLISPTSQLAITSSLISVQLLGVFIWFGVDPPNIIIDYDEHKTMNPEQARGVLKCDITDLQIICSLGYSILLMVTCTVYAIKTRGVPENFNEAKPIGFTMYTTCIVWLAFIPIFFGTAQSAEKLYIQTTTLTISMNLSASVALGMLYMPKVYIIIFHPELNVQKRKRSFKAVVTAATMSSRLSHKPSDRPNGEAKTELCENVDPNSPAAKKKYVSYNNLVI
Recorded Endpoint: IC50

Past entries and their recorded results:
compound=FC(F)(F)Oc1ccc(-n2cncn2)c(-c2nnc(-c3ccc4c(c3)OCCO4)o2)c1 result="> 30 µM"
compound=COc1ccc(-c2nnc(-c3cc(OC(F)(F)F)ccc3N3CCCC3)o2)cc1OC result="> 30 µM"

Now turn to the next compound.
The reported value for `COc1cc(-c2nnc(-c3cc(OC(F)(F)F)ccc3-n3cncn3)o2)cnc1OC` in terms of IC50 is 4.38 µM
